Would you kindly list MIC for each of these compounds?
- Tested on: Staphylococcus aureus
- assay-text: Antibacterial activity against Staphylococcus aureus ATCC 43300 after 18 to 24 hrs by serial broth microdilution susceptibility test
- Format: functional

Prompt: Entry under review: `CCCCCCCCNC(=O)[C@H](Cc1ccccc1)NC(=O)[C@H](CCCCNC(=O)[C@H](CCCCN)NC(=O)OCc1ccccc1Cl)NC(=O)[C@H](CCCCN)NC(=O)OCc1ccccc1Cl` . Reported MIC?
Completion: 16 µM

Prompt: Entry under review: `CCCCCCCCNC(=O)[C@H](Cc1ccccc1)NC(=O)[C@H](CCCCNC(=O)[C@H](CCCCN)NC(=O)OCc1ccccc1)NC(=O)[C@H](CCCCN)NC(=O)OCc1ccccc1` . Reported MIC?
Completion: 16 µM

Prompt: Entry under review: `CCCCCCCCCCCCNC(=O)[C@H](Cc1ccccc1)NC(=O)[C@H](CCCCNC(=O)[C@@H](N)CCCCNC(=O)OCc1ccccc1Cl)NC(=O)[C@@H](N)CCCCNC(=O)OCc1ccccc1Cl.Cl.Cl` . Reported MIC?
Completion: 28 µM

Prompt: Entry under review: `CCCCCCCCCCCCNC(=O)[C@H](Cc1ccccc1)NC(=O)[C@H](CCCCNC(=O)[C@H](CCCCN)NC(=O)OCc1ccccc1Cl)NC(=O)[C@H](CCCCN)NC(=O)OCc1ccccc1Cl` . Reported MIC?
Completion: 16 µM

Prompt: Entry under review: `CCCCCCCCCCCCNC(=O)[C@H](Cc1ccccc1)NC(=O)[C@H](CCCCNC(=O)[C@H](CCCCN)NC(=O)OCc1ccccc1)NC(=O)[C@H](CCCCN)NC(=O)OCc1ccccc1.Cl.Cl` . Reported MIC?
Completion: 8 µM
